Where do these numbers come from? They come from patent US6495529B1.

// values below are reported Intravenous Dose Needed to Increase MAP 10%
System: mongrel dogs
Assay: Intravenous dose increasing mean arterial pressure 10% in anesthetized dogs
Conditions: anesthetized dog, i.v.
Measured Metric: Intravenous Dose Needed to Increase MAP 10% (mg/kg)

{"Compound": "CN[C@@H](C)[C@@H](O)c1ccccc1 (single isomer, unassigned) [(+)-pseudoephedrine]", "Recorded Number": 0.2}
{"Compound": "CN[C@H](C)[C@H](O)c1ccccc1 (single isomer, unassigned) [(−)-pseudoephedrine]", "Recorded Number": 1.4}
{"Compound": "CN[C@@H](C)[C@H](O)c1ccccc1 [(−)-ephedrine]", "Recorded Number": 0.1}
{"Compound": "CNC[C@H](O)c1cccc(O)c1 [(−)-phenylephrine]", "Recorded Number": 0.01}
